Assay: Pharmacokinetic study in rats
Format: in vivo
Settings: male, Sprague-Dawley, rat, plasma; rats, 10 mg/kg IV; read-out: volume of distribution Vss
Parameter measured: Vd (L/kg)
Answers are plain numbers, in L/kg.

Read the entry `NCCSCc1cnccc1SC1=C(C(=O)O)N2C(=O)[C@@H](NC(=O)/C(=N\O)c3nsc(N)n3)[C@H]2CC1` and write its reported Vd.
1.08

---

So I've got a bunch of compounds here, and I need their MIC values.
Test system: S. aureus ASAU1028 (CA-MRSA, USA400)

Answered cases to consult:
CNCCSCc1ncccc1SC1=C(C(=O)O)N2C(=O)[C@@H](NC(=O)/C(=N\OC)c3nc(N)sc3Cl)[C@H]2CC1 :: 1 to 8 µg/mL
CO/N=C(\C(=O)N[C@@H]1C(=O)N2C(C(=O)O)=C(Sc3nc(C)c(C)s3)CC[C@H]12)c1nc(N)sc1Cl :: ≤ 1 µg/mL
Nc1nc(/C(=N\O)C(=O)NC2C(=O)N3C(C(=O)O)=C(/C=C4\CCN(C5CCNC5)C4=O)CS[C@H]23)ns1 (stereo partly shown) [Comparative Compound 1, reference compound] :: 1 to 8 µg/mL
Nc1nc(/C(=N/O)C(=O)N[C@@H]2C(=O)N3C(C(=O)O)=C(Sc4cccnc4N)CC[C@H]23)c(Cl)s1 :: ≤ 1 µg/mL
CO/N=C(\C(=O)N[C@@H]1C(=O)N2C(C(=O)O)=C(Sc3ccncc3)CC[C@H]12)c1nsc(N)n1 :: 1 to 8 µg/mL
CO/N=C(\C(=O)N[C@@H]1C(=O)N2C(C(=O)O)=C(Sc3nnc(N)s3)CC[C@H]12)c1nsc(N)n1 :: > 8 µg/mL

Now examine the next entry.
Recall the reported MIC of CO/N=C(\C(=O)N[C@@H]1C(=O)N2C(C(=O)O)=C(Sc3cccnc3CSC3CCNC3)CC[C@H]12)c1nc(N)sc1Cl (stereo partly shown) on S. aureus ASAU1028 (CA-MRSA, USA400) and write it down.
1 to 8 µg/mL

Reference for the values: patent US8445476B2
